Below, each entry is listed alongside its reported activity, negative = cell killing.
experiment: Drug repurposing screens with cells derived from glioblastoma tumor samples (AID 1345199); conditions: GBM patient neurospheres viability, ATP luminescence, 48 h; at 45.9 µM (top of the series); tumour line D; note: % is set by controls: 0 for no effect and ±100 for the full control effect
Results filed as inconclusive are left out.
API: value field is a number in %; no unit string.

| smiles-data | value-unit | activity, negative = cell killing |
| --- | --- | --- |
| O=C(Oc1cccc2cccnc12)c1ccccc1 | % | -26.2 |

molecule "NC(=O)c1ccccc1O" , activity, negative = cell killing observed: 0.802

molecule "CC(C)(C)NC[C@H](O)COc1nsnc1N1CCOCC1" , activity, negative = cell killing observed: -20.5

molecule "Nc1nc(N)c(-c2ccccc2)s1" , activity, negative = cell killing observed: 8.98

molecule "COc1ccc2c(c1)c1c3n2CCN(C)C3=NCC1" , activity, negative = cell killing observed: -7.29

molecule "COc1cc(C(=S)N2CCOCC2)ccc1O" , activity, negative = cell killing observed: 6.32

molecule "Cc1cc(-c2ccccc2)nnc1NCCN1CCOCC1" , activity, negative = cell killing observed: -4.44

molecule "Nc1nc(-c2ccccc2)c(Br)c(=O)[nH]1" , activity, negative = cell killing observed: -11.4

molecule "CCCCCCCCCCCCCC(=O)OC(C)C" , activity, negative = cell killing observed: -15.3

molecule "C#C[C@]1(O)CC[C@H]2[C@@H]3CCC4=Cc5oncc5C[C@]4(C)[C@H]3CC[C@@]21C" , activity, negative = cell killing observed: -8.01

molecule "O=C(O)Cc1csc(-c2ccc(Cl)cc2)n1" , activity, negative = cell killing observed: 8.21

molecule "CCCCCCCCCCC[C@@H](C[C@@H]1OC(=O)[C@H]1CCCCCC)OC(=O)[C@H](CC(C)C)NC=O" , activity, negative = cell killing observed: -23

molecule "COc1ccc(C(=O)c2ccccc2)c(O)c1" , activity, negative = cell killing observed: -2.35

The reported measurements were obtained from PubChem BioAssay (NCATS).
